study_target: Ribosomal protein S6 kinase alpha-5 (Homo sapiens)
Sequence (O75582 whole entry): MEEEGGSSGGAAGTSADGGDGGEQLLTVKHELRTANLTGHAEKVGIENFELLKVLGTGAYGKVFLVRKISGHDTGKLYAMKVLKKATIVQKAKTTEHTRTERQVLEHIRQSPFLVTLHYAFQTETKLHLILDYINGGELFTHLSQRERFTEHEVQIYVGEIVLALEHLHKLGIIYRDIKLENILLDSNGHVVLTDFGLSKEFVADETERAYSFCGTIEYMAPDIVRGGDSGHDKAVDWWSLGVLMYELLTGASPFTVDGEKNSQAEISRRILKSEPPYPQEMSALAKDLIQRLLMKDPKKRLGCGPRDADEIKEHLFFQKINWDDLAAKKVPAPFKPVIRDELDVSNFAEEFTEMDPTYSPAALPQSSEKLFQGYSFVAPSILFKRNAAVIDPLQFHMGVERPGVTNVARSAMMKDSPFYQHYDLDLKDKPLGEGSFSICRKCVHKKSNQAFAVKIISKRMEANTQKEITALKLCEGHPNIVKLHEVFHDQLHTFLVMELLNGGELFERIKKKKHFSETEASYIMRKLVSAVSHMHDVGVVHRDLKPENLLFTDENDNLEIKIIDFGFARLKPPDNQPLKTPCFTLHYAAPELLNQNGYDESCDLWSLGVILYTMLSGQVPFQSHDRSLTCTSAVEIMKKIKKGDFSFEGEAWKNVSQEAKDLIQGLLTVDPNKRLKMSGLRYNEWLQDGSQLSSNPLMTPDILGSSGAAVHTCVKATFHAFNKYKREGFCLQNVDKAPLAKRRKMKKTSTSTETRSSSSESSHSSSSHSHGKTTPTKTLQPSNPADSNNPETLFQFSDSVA
measured_parameter: pIC50
Answers are plain numbers, as −log10 of the molar value.

Name the recorded pIC50 of the molecule listed here: COc1cc2c(Oc3ccc(-c4cnc(Nc5ccc(F)cc5)n(C)c4=O)nc3)ccnc2cc1OCCCN1CCOCC1
4.28

###

study_target: Tyrosine-protein kinase ZAP-70 (Homo sapiens, UniProt P43403)
Sequence (P43403 whole entry): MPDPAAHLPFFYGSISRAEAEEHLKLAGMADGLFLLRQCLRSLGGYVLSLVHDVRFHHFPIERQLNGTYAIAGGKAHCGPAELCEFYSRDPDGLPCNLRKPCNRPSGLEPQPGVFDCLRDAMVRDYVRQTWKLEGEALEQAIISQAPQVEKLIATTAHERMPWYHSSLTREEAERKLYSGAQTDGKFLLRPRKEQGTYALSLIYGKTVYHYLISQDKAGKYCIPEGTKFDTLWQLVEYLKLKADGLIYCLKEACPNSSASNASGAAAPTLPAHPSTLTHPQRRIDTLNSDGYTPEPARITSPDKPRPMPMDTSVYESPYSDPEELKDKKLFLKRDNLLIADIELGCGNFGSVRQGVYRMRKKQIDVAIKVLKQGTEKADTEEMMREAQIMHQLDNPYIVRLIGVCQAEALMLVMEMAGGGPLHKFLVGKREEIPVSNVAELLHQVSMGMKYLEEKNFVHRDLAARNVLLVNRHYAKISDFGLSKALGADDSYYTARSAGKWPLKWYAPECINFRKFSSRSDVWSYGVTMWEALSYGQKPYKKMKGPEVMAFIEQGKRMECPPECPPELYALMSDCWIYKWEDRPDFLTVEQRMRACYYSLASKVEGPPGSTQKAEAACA
pIC50: −log10 of the molar value.
measured_parameter: pIC50

Given COc1cc2c(Oc3ccc(-c4cnc(Nc5ccc(F)cc5)n(C)c4=O)cc3F)ccnc2cc1OCCCN1CCOCC1 , report its pIC50 on Tyrosine-protein kinase ZAP-70 (Homo sapiens, UniProt P43403).
< 5.08

###

study_target: Hepatocyte growth factor receptor c-Met (Mus musculus)
protocol: Inhibition of human recombinant HGF-mediated cMet phosphorylation in mouse CT26 cells
What pIC50 was measured for each of the following?
Numbers only, as −log10 of the molar value.

Here are 2 molecules together with their reported answers.
Hello, please tell me recorded pIC50 for this one: COc1cc2c(Oc3ccc(-c4cnc(Nc5ccc(F)cc5)n(C)c4=O)nc3)ccnc2cc1OCCCN1CCOCC1
7.23

Read the entry COc1cc2c(Oc3ccc(-c4cnc(Cc5ccc(F)cc5)n(C)c4=O)cc3F)ccnc2cc1OCCCN1CCOCC1 and write its reported pIC50.
6.71

Now for a further molecule.
Look up and state reported pIC50 for COc1cc2c(Oc3ccc(-c4cnc(Nc5ccc(F)cc5)n(C)c4=O)cc3F)ccnc2cc1OCCCN1CCOCC1
7.09

Source listed as ChEMBL document CHEMBL1140082.
